Attribution: paper PMC10856454

- protocol description: Liver microsomal stability, rat
- Assay type: in vitro ADME
- condition context: Rat liver microsomes, NADPH, 37 °C
test readout: half-life (min)
Answers are plain numbers, in min.

**Q:** Tell me the measured half-life of `CC1(C)CCN1C(=O)O[C@@H]1CC[C@H](c2cc(NC(=O)Cc3ccc(N4CCCC4=O)cc3)n[nH]2)C1` , please.
**A:** 28.1

----------
- protocol description: Pharmacokinetics study in rats
- Type: in vivo
- condition context: both sexes, rat, plasma, iv, 2 mg/kg i.v.
test readout: Cmax (µM)
Answers are plain numbers, in µM.

molecule	measurement units	Cmax
COCc1cc(C(=O)Nc2cc([C@H]3CC[C@@H](OC(=O)NC(C)C)C3)[nH]n2)n(C)n1 [PF-4091, reference compound]	µM	6.71

Below: the item to evaluate.
**Q:** Tell me the measured Cmax of CC1(C)CCN1C(=O)O[C@@H]1CC[C@H](c2cc(NC(=O)Cc3ccc(N4CCCC4=O)cc3)n[nH]2)C1 [III-13] , please.
**A:** 5.5

----------
- protocol description: Pharmacokinetics study in rats
- Assay type: in vivo
- condition context: both sexes, rat, plasma, iv, 2 mg/kg i.v.
test readout: MRT last (min)
Answers are plain numbers, in min.

For each entry beneath this line, provide reported MRT last.
1. COCc1cc(C(=O)Nc2cc([C@H]3CC[C@@H](OC(=O)NC(C)C)C3)[nH]n2)n(C)n1 [PF-4091, reference compound]
2. CC1(C)CCN1C(=O)O[C@@H]1CC[C@H](c2cc(NC(=O)Cc3ccc(N4CCCC4=O)cc3)n[nH]2)C1

**A:**
1. 72
2. 27

----------
- target under test: hERG (Homo sapiens)
- Sequence (Q12809 whole entry): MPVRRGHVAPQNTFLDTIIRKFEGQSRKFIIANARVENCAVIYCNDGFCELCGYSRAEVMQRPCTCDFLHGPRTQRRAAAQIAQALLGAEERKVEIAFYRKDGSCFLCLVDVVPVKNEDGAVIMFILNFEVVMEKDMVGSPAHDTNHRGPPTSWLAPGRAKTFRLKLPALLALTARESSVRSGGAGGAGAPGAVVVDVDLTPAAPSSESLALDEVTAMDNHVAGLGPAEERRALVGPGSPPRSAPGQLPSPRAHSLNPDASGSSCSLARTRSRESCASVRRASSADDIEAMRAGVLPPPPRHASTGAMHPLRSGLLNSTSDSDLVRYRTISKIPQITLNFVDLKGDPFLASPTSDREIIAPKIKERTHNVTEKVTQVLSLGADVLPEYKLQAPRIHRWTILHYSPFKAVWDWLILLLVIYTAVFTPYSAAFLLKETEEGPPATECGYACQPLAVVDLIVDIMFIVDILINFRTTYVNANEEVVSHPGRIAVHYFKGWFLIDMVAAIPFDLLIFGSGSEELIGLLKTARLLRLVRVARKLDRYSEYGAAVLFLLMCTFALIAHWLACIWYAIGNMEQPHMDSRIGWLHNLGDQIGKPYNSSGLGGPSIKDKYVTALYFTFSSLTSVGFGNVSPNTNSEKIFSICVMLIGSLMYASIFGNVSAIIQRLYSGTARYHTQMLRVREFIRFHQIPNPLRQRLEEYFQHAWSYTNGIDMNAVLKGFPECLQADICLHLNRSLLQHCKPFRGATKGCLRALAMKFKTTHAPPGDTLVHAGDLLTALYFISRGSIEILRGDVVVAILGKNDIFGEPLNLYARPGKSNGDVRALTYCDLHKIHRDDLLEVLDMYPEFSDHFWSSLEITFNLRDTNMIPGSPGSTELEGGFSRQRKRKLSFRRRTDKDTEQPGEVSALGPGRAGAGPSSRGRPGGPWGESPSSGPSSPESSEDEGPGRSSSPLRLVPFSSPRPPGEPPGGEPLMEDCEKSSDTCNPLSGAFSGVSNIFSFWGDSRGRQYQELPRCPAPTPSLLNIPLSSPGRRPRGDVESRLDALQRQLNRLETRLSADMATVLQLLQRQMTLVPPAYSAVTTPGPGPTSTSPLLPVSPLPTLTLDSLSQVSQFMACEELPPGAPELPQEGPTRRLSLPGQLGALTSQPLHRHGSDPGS
- protocol description: hERG assay in CHO cells stably expressing hERG
- condition context: CHO cells stably expressing hERG
test readout: IC50

**Q:** # value lookup — system hERG (Homo sapiens), readout IC50, item COCc1cc(C(=O)Nc2cc([C@H]3CC[C@@H](OC(=O)NC(C)C)C3)[nH]n2)n(C)n1 [PF-4091, reference compound]
**A:** > 30 µM

----------
- protocol description: Liver microsomal stability, human
- Format: in vitro ADME
- condition context: Human liver microsomes, NADPH, 37 °C
test readout: half-life (min)
Answers are plain numbers, in min.

**Q:** Tell me the measured half-life of `CC1(C)CCN1C(=O)O[C@@H]1CC[C@H](c2cc(NC(=O)Cc3ccc(N4CCCC4=O)cc3)n[nH]2)C1` , please.
**A:** 21.9

----------
- target under test: CDK1 (Homo sapiens)
- Sequence (P06493 whole entry): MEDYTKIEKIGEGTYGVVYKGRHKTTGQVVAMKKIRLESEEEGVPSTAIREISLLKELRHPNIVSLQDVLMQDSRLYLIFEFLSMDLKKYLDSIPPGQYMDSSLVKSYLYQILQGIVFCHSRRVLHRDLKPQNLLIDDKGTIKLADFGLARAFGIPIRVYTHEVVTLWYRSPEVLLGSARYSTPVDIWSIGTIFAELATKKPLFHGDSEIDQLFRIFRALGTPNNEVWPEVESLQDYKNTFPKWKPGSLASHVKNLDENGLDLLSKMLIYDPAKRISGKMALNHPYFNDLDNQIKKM
- Sequence (P14635 whole entry partner): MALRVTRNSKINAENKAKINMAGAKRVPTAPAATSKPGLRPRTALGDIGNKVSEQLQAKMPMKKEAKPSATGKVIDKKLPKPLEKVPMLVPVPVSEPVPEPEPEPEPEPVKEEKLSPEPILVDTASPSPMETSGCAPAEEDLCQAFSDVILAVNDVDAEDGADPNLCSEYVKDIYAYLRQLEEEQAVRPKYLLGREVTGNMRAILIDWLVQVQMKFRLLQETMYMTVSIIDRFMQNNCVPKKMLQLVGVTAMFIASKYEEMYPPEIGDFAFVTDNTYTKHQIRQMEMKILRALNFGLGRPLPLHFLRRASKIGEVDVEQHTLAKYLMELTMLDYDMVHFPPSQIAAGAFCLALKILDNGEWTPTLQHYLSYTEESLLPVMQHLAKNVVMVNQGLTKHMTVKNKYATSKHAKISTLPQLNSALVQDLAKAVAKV
test readout: pIC50
Give bare numbers, as −log10 of the molar value.

compound	test value
CC1(C)CCN1C(=O)O[C@@H]1CC[C@H](c2cc(NC(=O)Cc3ccc(N4CCCC4=O)cc3)n[nH]2)C1 [III-13]	6.28

Below: the item to evaluate.
**Q:** Tell me the measured pIC50 of COCc1cc(C(=O)Nc2cc([C@H]3CC[C@@H](OC(=O)NC(C)C)C3)[nH]n2)n(C)n1 [PF-4091, reference compound] , please.
**A:** 6.82

----------
- target under test: CDK4 (Homo sapiens)
- Sequence (P11802 whole entry): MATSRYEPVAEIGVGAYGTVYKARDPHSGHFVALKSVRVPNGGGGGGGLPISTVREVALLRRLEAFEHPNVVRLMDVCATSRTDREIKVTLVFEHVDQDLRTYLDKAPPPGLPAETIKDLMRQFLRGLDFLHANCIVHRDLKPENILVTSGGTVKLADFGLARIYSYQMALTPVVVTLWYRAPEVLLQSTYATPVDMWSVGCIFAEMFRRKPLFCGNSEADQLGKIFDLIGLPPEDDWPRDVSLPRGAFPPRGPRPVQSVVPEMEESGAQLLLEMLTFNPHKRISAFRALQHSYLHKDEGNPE
- Sequence (P24385 whole entry partner): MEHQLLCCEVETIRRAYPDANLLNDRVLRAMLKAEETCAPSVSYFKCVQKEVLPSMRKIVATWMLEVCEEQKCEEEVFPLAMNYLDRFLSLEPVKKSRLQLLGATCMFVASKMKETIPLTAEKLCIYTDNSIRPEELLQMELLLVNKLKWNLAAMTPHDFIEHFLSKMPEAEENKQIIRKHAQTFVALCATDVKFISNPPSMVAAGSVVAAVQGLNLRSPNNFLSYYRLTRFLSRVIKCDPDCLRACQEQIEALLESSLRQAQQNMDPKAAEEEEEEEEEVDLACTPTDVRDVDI
test readout: pIC50
Answers are plain numbers, as −log10 of the molar value.

**Q:** # value lookup — system CDK4 (Homo sapiens), readout pIC50, item `CC1(C)CCN1C(=O)O[C@@H]1CC[C@H](c2cc(NC(=O)Cc3ccc(N4CCCC4=O)cc3)n[nH]2)C1`
**A:** 5.20

----------
- protocol description: Pharmacokinetics study in rats
- Assay type: in vivo
- condition context: both sexes, rat, plasma, po, 5 mg/kg, 5 mg/kg i.g.
test readout: Tmax (min)
One number for each entry, in min.

**Q:** Tell me the measured Tmax of COCc1cc(C(=O)Nc2cc([C@H]3CC[C@@H](OC(=O)NC(C)C)C3)[nH]n2)n(C)n1 [PF-4091, reference compound] , please.
**A:** 19.8

----------
- protocol description: Liver microsomal stability, human
- Type: in vitro ADME
- condition context: Human liver microsomes
test readout: CLint scaled

compound	CLint scaled
COCc1cc(C(=O)Nc2cc([C@H]3CC[C@@H](OC(=O)NC(C)C)C3)[nH]n2)n(C)n1 [PF-4091, reference compound]	< 13.5 mL/min/kg

**Q:** Tell me the measured CLint scaled of CC1(C)CCN1C(=O)O[C@@H]1CC[C@H](c2cc(NC(=O)Cc3ccc(N4CCCC4=O)cc3)n[nH]2)C1 [III-13] , please.
**A:** 59.9 mL/min/kg

----------
- protocol description: Liver microsomal stability, rat
- Type: in vitro ADME
- condition context: Rat liver microsomes
test readout: CLint scaled (mL/min/kg)
Give bare numbers, in mL/min/kg.

**Q:** Tell me the measured CLint scaled of CC1(C)CCN1C(=O)O[C@@H]1CC[C@H](c2cc(NC(=O)Cc3ccc(N4CCCC4=O)cc3)n[nH]2)C1 [III-13] , please.
**A:** 88.9

----------
- protocol description: Caco-2 permeability and transporter substrate evaluation
- Format: in vitro ADME
- condition context: human, Caco-2, 2 μM
test readout: efflux ratio at 120 min, 2 µM
Answers are plain numbers.

**Q:** Tell me the measured efflux ratio at 120 min, 2 µM of `CC1(C)CCN1C(=O)O[C@@H]1CC[C@H](c2cc(NC(=O)Cc3ccc(N4CCCC4=O)cc3)n[nH]2)C1` , please.
**A:** 5.34

----------
Can you tell me Vz/F for the items I'm about to list?
- protocol description: Pharmacokinetics study in rats
- Assay type: in vivo
- condition context: 2 mg/kg i.v.
Answers are plain numbers, in L/kg.

compound	test value
CC1(C)CCN1C(=O)O[C@@H]1CC[C@H](c2cc(NC(=O)Cc3ccc(N4CCCC4=O)cc3)n[nH]2)C1	1.3

**Q:** Tell me the measured Vz/F of COCc1cc(C(=O)Nc2cc([C@H]3CC[C@@H](OC(=O)NC(C)C)C3)[nH]n2)n(C)n1 [PF-4091, reference compound] , please.
**A:** 3.52

----------
Can you tell me bioavailability for the items I'm about to list?
- protocol description: Pharmacokinetics study in rats
- Format: in vivo
- condition context: both sexes, rat, plasma, oral, 5 mg/kg, 5 mg/kg i.g. vs 2 mg/kg i.v., read-out: F (oral bioavailability)

molecule	test readout	test value
COCc1cc(C(=O)Nc2cc([C@H]3CC[C@@H](OC(=O)NC(C)C)C3)[nH]n2)n(C)n1 [PF-4091, reference compound]	bioavailability	46.7%

Below: the item to evaluate.
**Q:** Tell me the measured bioavailability of `CC1(C)CCN1C(=O)O[C@@H]1CC[C@H](c2cc(NC(=O)Cc3ccc(N4CCCC4=O)cc3)n[nH]2)C1` , please.
**A:** ~3.57%

----------
- protocol description: Pharmacokinetics study in rats
- Assay type: in vivo
- condition context: both sexes, rat, plasma, po, 5 mg/kg i.g.
test readout: MRT last (h)
Answers are plain numbers, in h.

compound	MRT last, h
COCc1cc(C(=O)Nc2cc([C@H]3CC[C@@H](OC(=O)NC(C)C)C3)[nH]n2)n(C)n1 [PF-4091, reference compound]	4.07

Below: the item to evaluate.
**Q:** Tell me the measured MRT last of `CC1(C)CCN1C(=O)O[C@@H]1CC[C@H](c2cc(NC(=O)Cc3ccc(N4CCCC4=O)cc3)n[nH]2)C1` , please.
**A:** 0.85

----------
- protocol description: Pharmacokinetics study in rats
- Type: in vivo
- condition context: both sexes, rat, plasma, iv, 2 mg/kg, 2 mg/kg i.v.
test readout: half-life

molecule	test readout	test value
CC1(C)CCN1C(=O)O[C@@H]1CC[C@H](c2cc(NC(=O)Cc3ccc(N4CCCC4=O)cc3)n[nH]2)C1	half-life	~0.37 h

**Q:** Tell me the measured half-life of COCc1cc(C(=O)Nc2cc([C@H]3CC[C@@H](OC(=O)NC(C)C)C3)[nH]n2)n(C)n1 [PF-4091, reference compound] , please.
**A:** 2.6 h

----------
- protocol description: Caco-2 permeability and transporter substrate evaluation
- Type: in vitro ADME
- condition context: human, Caco-2, 2 μM
Can you tell me Papp A→B at 120 min, 2 µM for the items I'm about to list?
Answers are plain numbers, in ×10⁻⁶ cm/s.

molecule	Papp A→B at 120 min, 2 µM [×10⁻⁶ cm/s]
COCc1cc(C(=O)Nc2cc([C@H]3CC[C@@H](OC(=O)NC(C)C)C3)[nH]n2)n(C)n1 [PF-4091, reference compound]	4.3

Below: the item to evaluate.
**Q:** Tell me the measured Papp A→B at 120 min, 2 µM of CC1(C)CCN1C(=O)O[C@@H]1CC[C@H](c2cc(NC(=O)Cc3ccc(N4CCCC4=O)cc3)n[nH]2)C1 [III-13] , please.
**A:** 1.6
